- Tested on: MDA-MB-231 (breast cancer cells)
- ASSAY_TEXT: MTT cancer cell growth inhibition
- Type: cell-based
- TEST_SETTINGS: Homo sapiens, MDA-MB-231, 72 h, read-out: GI50 MDA-MB-231, MTT, 72 hours incubation, MDA-MB-231 cells
MEASURED_METRIC: GI50 (nM)
Express your answer in nM, writing the number without its unit.

Which value of GI50 has been reported for C=C1NC(=O)c2cccc(n2)CNC(=O)C[C@@H](/C=C/CCSC(=O)CCCCCCC)OC(=O)[C@H](C(C)C)NC1=O in the records?
35

Which value of GI50 has been reported for C/C=C1\NC(=O)c2ccc(F)c(n2)CNC(=O)C[C@@H](/C=C/CCS)OC(=O)[C@H](Cc2cccc3ccccc23)NC1=O in the records?
29

Which value of GI50 has been reported for C/C=C1\NC(=O)c2cc(F)cc(n2)CNC(=O)C[C@@H](/C=C/CCSC(C)=O)OC(=O)[C@H](C)NC1=O in the records?
46

Which value of GI50 has been reported for C/C=C1\NC(=O)c2nc(ccc2F)CNC(=O)C[C@@H](/C=C/CCSC(C)=O)OC(=O)[C@H](C)NC1=O in the records?
49

Which value of GI50 has been reported for C/C=C1\NC(=O)c2cc(F)cc(n2)CNC(=O)C[C@@H](/C=C/CCS)OC(=O)[C@H](CC)NC1=O in the records?
13

Which value of GI50 has been reported for C/C=C1\NC(=O)c2nc(ccc2F)CNC(=O)C[C@@H](/C=C/CCSC(=O)CCCCC)OC(=O)[C@H](C(C)C)NC1=O in the records?
43

Which value of GI50 has been reported for C/C=C1\NC(=O)c2cccc(n2)CNC(=O)C[C@@H](/C=C/CCSC=O)OC(=O)[C@H](C(C)C)NC1=O in the records?
93

Which value of GI50 has been reported for C/C=C1\NC(=O)c2nc(ccc2SC)CNC(=O)C[C@@H](/C=C/CCSC(=O)CCCCCCC)OC(=O)[C@H](C(C)C)NC1=O in the records?
78

Which value of GI50 has been reported for C/C=C1\NC(=O)c2nc(ccc2SC)CNC(=O)C[C@@H](/C=C/CCSC=O)OC(=O)[C@H](C(C)C)NC1=O in the records?
12

Which value of GI50 has been reported for C/C=C1\NC(=O)c2cc(SC)cc(n2)CNC(=O)C[C@@H](/C=C/CCSC(=O)CCCCCCC)OC(=O)[C@H](Cc2ccccc2)NC1=O in the records?
67

Which value of GI50 has been reported for C/C=C1\NC(=O)c2nc(ccc2F)CCNC(=O)C[C@@H](/C=C/CCSC(C)=O)OC(=O)[C@H](C(C)C)NC1=O in the records?
39

Which value of GI50 has been reported for C/C=C1\NC(=O)c2cc(SC)cc(n2)CNC(=O)C[C@@H](/C=C/CCSC(C)=O)OC(=O)[C@H](Cc2cccc3ccccc23)NC1=O in the records?
51

Which value of GI50 has been reported for C/C=C1\NC(=O)c2nc(ccc2F)CNC(=O)C[C@@H](/C=C/CCS)OC(=O)[C@H](C)NC1=O in the records?
58

Which value of GI50 has been reported for C/C=C1\NC(=O)c2cc(SC)cc(n2)CNC(=O)C[C@@H](/C=C/CCSC(=O)CCCCCCC)OC(=O)[C@H](C(C)C)NC1=O in the records?
51

Which value of GI50 has been reported for C/C=C1\NC(=O)c2cc(C)cc(n2)CNC(=O)C[C@@H](/C=C/CCSC(C)=O)OC(=O)[C@H](Cc2ccccc2)NC1=O in the records?
33

Which value of GI50 has been reported for C/C=C1\NC(=O)c2nc(ccc2SC)CNC(=O)C[C@@H](/C=C/CCSC(C)=O)OC(=O)[C@@H](C)NC1=O in the records?
45

Which value of GI50 has been reported for C/C=C1\NC(=O)c2cc(SC)cc(n2)CNC(=O)C[C@@H](/C=C/CCSC(C)=O)OC(=O)[C@H](Cc2ccc(O)cc2)NC1=O in the records?
41

Which value of GI50 has been reported for C/C=C1\NC(=O)c2cccc(n2)CNC(=O)C[C@@H](/C=C/CCSC(=O)CCCCCCC)OC(=O)[C@@H](C)NC1=O in the records?
17
